Tested on: Enterococcus faecalis
protocol notes: Antibacterial activity against t Enterococcus faecalis VRE after 20 hrs by NCCLS-based two-fold broth dilution method
Type: functional
condition: read-out: MIC
MIC values for the compounds below.
recorded metric: MIC (µg/mL)

| compound smiles | unit label | numeric value |
| --- | --- | --- |
| CCCCCCCCCCCCCCCCC[C@@H]1CN[C@@H]([C@H](O[C@@H]2O[C@H](CN)[C@@H](O)[C@H]2O)[C@H]2O[C@@H](n3ccc(=O)[nH]c3=O)[C@H](O)[C@@H]2O)C(=O)N(C)[C@@H]1C(=O)O | µg/mL | 8 |
| CCCCCCCCCCCCCCCC(=O)N[C@H]1CCN[C@H]([C@H](O[C@@H]2O[C@H](CN)[C@@H](O)[C@H]2O)[C@H]2O[C@@H](n3ccc(=O)[nH]c3=O)[C@H](O)[C@@H]2O)C1 | µg/mL | 8 |

====

MIC values for the compounds below.
Test system: Mycobacterium tuberculosis
protocol notes: Antibacterial activity against Mycobacterium tuberculosis H37Rv
Format: functional
recorded metric: MIC (mg/L)

| compound smiles | experimental system | recorded metric | numeric value |
| --- | --- | --- | --- |
| CCCCCCCNC(=O)C1=CCN(C)[C@@H]([C@H](O[C@@H]2O[C@H](CN)[C@@H](O)[C@H]2O)[C@H]2O[C@@H](n3ccc(=O)[nH]c3=O)[C@H](O)[C@@H]2O)C(=O)N1C | Mycobacterium tuberculosis | MIC | 3.13 |
| CCCCc1ccc(NC(=O)C2=CCN[C@@H]([C@H](O[C@@H]3O[C@H](CN)[C@@H](O)[C@H]3O)[C@H]3O[C@@H](n4ccc(=O)[nH]c4=O)[C@H](O)[C@@H]3O)C(=O)N2C)cc1 | Mycobacterium tuberculosis | MIC | 1.56 |
| CCCCCCCCCCCCCCCNC(=O)C1=CCN(C)[C@@H]([C@H](O[C@@H]2O[C@H](CN)[C@@H](O)[C@H]2O)[C@H]2O[C@@H](n3ccc(=O)[nH]c3=O)[C@H](O)[C@@H]2O)C(=O)N1C | Mycobacterium tuberculosis | MIC | 1.56 |
| CCCCCCCCCCCCCNC(=O)C1=CCN(C)[C@@H]([C@H](O[C@@H]2O[C@H](CN)[C@@H](O)[C@H]2O)[C@H]2O[C@@H](n3ccc(=O)[nH]c3=O)[C@H](O)[C@@H]2O)C(=O)N1C | Mycobacterium tuberculosis | MIC | 1.56 |
| CCCCCCNC(=O)C1=CCN(C)[C@@H]([C@H](O[C@@H]2O[C@H](CN)[C@@H](O)[C@H]2O)[C@H]2O[C@@H](n3ccc(=O)[nH]c3=O)[C@H](O)[C@@H]2O)C(=O)N1C | Mycobacterium tuberculosis | MIC | 3.16 |
| CCCCCCCc1ccc(NC(=O)C2=CCN(C)[C@@H]([C@H](O[C@@H]3O[C@H](CN)[C@@H](O)[C@H]3O)[C@H]3O[C@@H](n4ccc(=O)[nH]c4=O)[C@H](O)[C@@H]3O)C(=O)N2C)cc1 | Mycobacterium tuberculosis | MIC | 0.78 |
| CCCCCCCCCCNC(=O)C1=CCN(C)[C@@H]([C@H](O[C@@H]2O[C@H](CN)[C@@H](O)[C@H]2O)[C@H]2O[C@@H](n3ccc(=O)[nH]c3=O)[C@H](O)[C@@H]2O)C(=O)N1C | Mycobacterium tuberculosis | MIC | 1.56 |
| CCCCCCCCCNC(=O)C1=CCN(C)[C@@H]([C@H](O[C@@H]2O[C@H](CN)[C@@H](O)[C@H]2O)[C@H]2O[C@@H](n3ccc(=O)[nH]c3=O)[C@H](O)[C@@H]2O)C(=O)N1C | Mycobacterium tuberculosis | MIC | 1.56 |

Hey, just so you know, these numbers are from ChEMBL document CHEMBL4402510.
